TARGET UNDER TEST: Hap1 (UniProt P0CE41)
Sequence (P0CE41 whole entry): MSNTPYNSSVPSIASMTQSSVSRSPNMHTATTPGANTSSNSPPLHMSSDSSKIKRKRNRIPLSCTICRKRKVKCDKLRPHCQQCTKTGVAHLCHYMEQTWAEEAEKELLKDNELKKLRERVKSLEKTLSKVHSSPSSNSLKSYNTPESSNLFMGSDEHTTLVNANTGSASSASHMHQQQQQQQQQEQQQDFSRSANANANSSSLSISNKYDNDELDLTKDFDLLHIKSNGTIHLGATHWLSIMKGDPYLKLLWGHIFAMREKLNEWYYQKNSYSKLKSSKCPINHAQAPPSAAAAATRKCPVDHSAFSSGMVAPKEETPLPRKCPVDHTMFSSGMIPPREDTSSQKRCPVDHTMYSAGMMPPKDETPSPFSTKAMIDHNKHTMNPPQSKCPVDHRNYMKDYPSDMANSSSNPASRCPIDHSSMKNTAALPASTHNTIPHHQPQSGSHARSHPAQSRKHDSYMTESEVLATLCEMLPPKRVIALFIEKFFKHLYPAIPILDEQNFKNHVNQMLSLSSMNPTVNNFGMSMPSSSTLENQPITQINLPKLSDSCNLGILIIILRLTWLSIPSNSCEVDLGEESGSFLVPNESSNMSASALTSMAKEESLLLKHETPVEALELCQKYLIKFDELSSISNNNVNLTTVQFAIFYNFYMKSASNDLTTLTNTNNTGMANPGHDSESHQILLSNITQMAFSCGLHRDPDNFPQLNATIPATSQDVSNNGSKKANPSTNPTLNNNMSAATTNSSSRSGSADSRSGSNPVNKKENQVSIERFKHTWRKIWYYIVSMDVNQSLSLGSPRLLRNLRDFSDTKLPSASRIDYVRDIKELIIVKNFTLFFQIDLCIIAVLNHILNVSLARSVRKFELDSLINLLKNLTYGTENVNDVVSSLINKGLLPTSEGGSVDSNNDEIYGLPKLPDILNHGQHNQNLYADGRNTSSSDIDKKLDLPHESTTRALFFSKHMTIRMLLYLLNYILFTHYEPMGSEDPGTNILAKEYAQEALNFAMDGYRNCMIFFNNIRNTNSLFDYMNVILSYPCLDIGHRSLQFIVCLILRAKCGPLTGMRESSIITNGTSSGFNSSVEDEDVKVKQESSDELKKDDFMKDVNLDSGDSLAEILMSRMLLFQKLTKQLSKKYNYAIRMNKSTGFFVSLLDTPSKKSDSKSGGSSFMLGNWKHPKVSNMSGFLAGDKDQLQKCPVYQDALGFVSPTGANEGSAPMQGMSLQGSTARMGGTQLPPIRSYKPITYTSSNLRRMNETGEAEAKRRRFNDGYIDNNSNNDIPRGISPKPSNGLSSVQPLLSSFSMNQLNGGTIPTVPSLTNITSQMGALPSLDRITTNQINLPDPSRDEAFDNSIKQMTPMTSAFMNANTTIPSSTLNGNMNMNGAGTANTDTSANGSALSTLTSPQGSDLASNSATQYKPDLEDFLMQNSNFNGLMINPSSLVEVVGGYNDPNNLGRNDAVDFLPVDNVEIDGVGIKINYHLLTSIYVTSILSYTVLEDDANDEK
RUN DESCRIPTION: PBM E-score (8-mer binding enrichment) (E-score (-0.5 to 0.5)); higher = stronger / more preferred TF binding
ASSAY CONTEXT: protein concentration: 200 nM; construct: GST-DNA-binding domain
Whole data set: some 33,000 sequences, median “E-score (-0.5 to 0.5)” near -0.053, cut for the highest 2% near 0.37. The entries come from a sample that favours the highest values as a whole.
READOUT KIND: PBM E-score
Write the number on its own, no unit after it.

INPUT: Answer with PBM E-score of `ATAACCGA` measured for Hap1 (UniProt P0CE41).
OUTPUT: 0.386

INPUT: Answer with PBM E-score of `GACCCCGC` measured for Hap1 (UniProt P0CE41).
OUTPUT: 0.134

INPUT: Answer with PBM E-score of `AAACCCCG` measured for Hap1 (UniProt P0CE41).
OUTPUT: 0.438

INPUT: Answer with PBM E-score of `ATAACCGC` measured for Hap1 (UniProt P0CE41).
OUTPUT: 0.157

INPUT: Answer with PBM E-score of `AACCCCGC` measured for Hap1 (UniProt P0CE41).
OUTPUT: 0.371

INPUT: Answer with PBM E-score of `AACCCCCG` measured for Hap1 (UniProt P0CE41).
OUTPUT: 0.262

INPUT: Answer with PBM E-score of `AATGATCA` measured for Hap1 (UniProt P0CE41).
OUTPUT: -0.179

INPUT: Answer with PBM E-score of `ACCCCCGG` measured for Hap1 (UniProt P0CE41).
OUTPUT: 0.368

INPUT: Answer with PBM E-score of `GATATATC` measured for Hap1 (UniProt P0CE41).
OUTPUT: 0.373

INPUT: Answer with PBM E-score of `CACCCCGG` measured for Hap1 (UniProt P0CE41).
OUTPUT: 0.264

INPUT: Answer with PBM E-score of `GTACTTCA` measured for Hap1 (UniProt P0CE41).
OUTPUT: 0.032

###

Record form. Attribute: PBM E-score. Fill in for each entry.
TARGET UNDER TEST: Hap1 (UniProt P0CE41)
RUN DESCRIPTION: PBM E-score (8-mer binding enrichment) (E-score (-0.5 to 0.5)); higher = stronger / more preferred TF binding
ASSAY CONTEXT: protein concentration: 200 nM; construct: GST-DNA-binding domain
The full ranking holds about 33,000 sequences; the median of “E-score (-0.5 to 0.5)” is about -0.053, and the highest 2% start at about 0.37. For the sample, the highest values were picked, then their nearest neighbours and some sequences at random.
Write the number on its own, no unit after it.

INPUT: Look up and report measured PBM E-score for this entry: `GATCCGCA`
OUTPUT: 0.253

INPUT: Look up and report measured PBM E-score for this entry: `GTACGATA`
OUTPUT: -0.189

INPUT: Look up and report measured PBM E-score for this entry: `AAGAAGGA`
OUTPUT: -0.21

INPUT: Look up and report measured PBM E-score for this entry: `GTCCTTCA`
OUTPUT: -0.162

INPUT: Look up and report measured PBM E-score for this entry: `AGCGAACT`
OUTPUT: -0.137

INPUT: Look up and report measured PBM E-score for this entry: `ATCAGTAG`
OUTPUT: -0.276

INPUT: Look up and report measured PBM E-score for this entry: `GGCCATAC`
OUTPUT: 0.17

INPUT: Look up and report measured PBM E-score for this entry: `GTTCGATA`
OUTPUT: 0.0968

INPUT: Look up and report measured PBM E-score for this entry: `ATACTCCG`
OUTPUT: 0.407

INPUT: Look up and report measured PBM E-score for this entry: `CCCCGTAC`
OUTPUT: 0.0387

INPUT: Look up and report measured PBM E-score for this entry: `CTCCGATA`
OUTPUT: 0.432

INPUT: Look up and report measured PBM E-score for this entry: `CTGGTTTA`
OUTPUT: -0.309

INPUT: Look up and report measured PBM E-score for this entry: `ATCCGATA`
OUTPUT: 0.453

INPUT: Look up and report measured PBM E-score for this entry: `CTGCACTA`
OUTPUT: 0.0173

INPUT: Look up and report measured PBM E-score for this entry: `CTAGCGTC`
OUTPUT: -0.0893

INPUT: Look up and report measured PBM E-score for this entry: `GTCCGATA`
OUTPUT: 0.463

INPUT: Look up and report measured PBM E-score for this entry: `GCTGATTA`
OUTPUT: -0.00254

INPUT: Look up and report measured PBM E-score for this entry: `CATCCGGC`
OUTPUT: 0.342

INPUT: Look up and report measured PBM E-score for this entry: `CACCCTAC`
OUTPUT: -0.27

INPUT: Look up and report measured PBM E-score for this entry: `CGAGTTGC`
OUTPUT: -0.053

INPUT: Look up and report measured PBM E-score for this entry: `CATTTGCC`
OUTPUT: -0.0698

INPUT: Look up and report measured PBM E-score for this entry: `AGCTCGGA`
OUTPUT: 0.325

INPUT: Look up and report measured PBM E-score for this entry: `GTTTTAGA`
OUTPUT: 0.00012

INPUT: Look up and report measured PBM E-score for this entry: `ACGGATGA`
OUTPUT: 0.228

INPUT: Look up and report measured PBM E-score for this entry: `CACGCTAA`
OUTPUT: -0.0232

INPUT: Look up and report measured PBM E-score for this entry: `GATCCGTA`
OUTPUT: 0.225

INPUT: Look up and report measured PBM E-score for this entry: `AAACTCCT`
OUTPUT: -0.1

INPUT: Look up and report measured PBM E-score for this entry: `AAACTACG`
OUTPUT: 0.118

INPUT: Look up and report measured PBM E-score for this entry: `ACTGAAGG`
OUTPUT: -0.129

INPUT: Look up and report measured PBM E-score for this entry: `AAACTCCA`
OUTPUT: -0.0578

INPUT: Look up and report measured PBM E-score for this entry: `TGGATGAA`
OUTPUT: -0.183

INPUT: Look up and report measured PBM E-score for this entry: `GATCCGGA`
OUTPUT: 0.395

INPUT: Look up and report measured PBM E-score for this entry: `AGCTCCAA`
OUTPUT: -0.276

INPUT: Look up and report measured PBM E-score for this entry: `CGGTATTA`
OUTPUT: 0.412

INPUT: Look up and report measured PBM E-score for this entry: `AATCCGTC`
OUTPUT: 0.232

INPUT: Look up and report measured PBM E-score for this entry: `ATACTCCC`
OUTPUT: 0.115

INPUT: Look up and report measured PBM E-score for this entry: `CATGGTGG`
OUTPUT: -0.137

INPUT: Look up and report measured PBM E-score for this entry: `TATCCGGA`
OUTPUT: 0.428

INPUT: Look up and report measured PBM E-score for this entry: `CTACGATA`
OUTPUT: -0.179

INPUT: Look up and report measured PBM E-score for this entry: `AGCTTTGG`
OUTPUT: -0.135

INPUT: Look up and report measured PBM E-score for this entry: `TATCCTGA`
OUTPUT: -0.0806

INPUT: Look up and report measured PBM E-score for this entry: `TATCCGCA`
OUTPUT: 0.253

INPUT: Look up and report measured PBM E-score for this entry: `ATACTCCA`
OUTPUT: -0.15

INPUT: Look up and report measured PBM E-score for this entry: `CAACTCCA`
OUTPUT: -0.0501

INPUT: Look up and report measured PBM E-score for this entry: `CCCTCGGA`
OUTPUT: 0.373

INPUT: Look up and report measured PBM E-score for this entry: `CACCACGC`
OUTPUT: -0.201
